Form field: IC50 (one value per entry).
study_system: Carnitine O-palmitoyltransferase 1, muscle isoform (Homo sapiens, UniProt Q92523)
Sequence (Q92523 whole entry, canonical isoform): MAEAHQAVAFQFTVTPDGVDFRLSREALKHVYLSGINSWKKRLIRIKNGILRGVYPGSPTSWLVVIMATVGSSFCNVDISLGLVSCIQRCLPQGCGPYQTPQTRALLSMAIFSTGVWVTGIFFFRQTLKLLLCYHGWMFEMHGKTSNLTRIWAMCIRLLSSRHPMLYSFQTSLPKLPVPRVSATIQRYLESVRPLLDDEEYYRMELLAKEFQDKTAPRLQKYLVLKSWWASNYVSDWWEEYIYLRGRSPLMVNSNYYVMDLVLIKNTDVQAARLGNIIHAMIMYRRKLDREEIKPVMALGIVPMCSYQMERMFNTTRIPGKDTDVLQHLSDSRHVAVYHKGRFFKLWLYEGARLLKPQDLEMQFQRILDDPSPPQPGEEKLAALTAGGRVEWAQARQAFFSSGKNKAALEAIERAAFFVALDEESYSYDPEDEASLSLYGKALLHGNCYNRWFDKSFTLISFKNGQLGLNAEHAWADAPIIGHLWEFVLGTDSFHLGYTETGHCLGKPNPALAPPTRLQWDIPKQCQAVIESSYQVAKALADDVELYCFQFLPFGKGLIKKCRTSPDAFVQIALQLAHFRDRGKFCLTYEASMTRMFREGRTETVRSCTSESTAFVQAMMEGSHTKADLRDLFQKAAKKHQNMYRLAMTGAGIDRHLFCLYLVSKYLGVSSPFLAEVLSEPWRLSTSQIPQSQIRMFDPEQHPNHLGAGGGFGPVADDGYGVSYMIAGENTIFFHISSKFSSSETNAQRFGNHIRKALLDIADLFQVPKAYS
assay_overview: SUPPLEMENTARY: Inhibition of Carnitine palmitoyltransferase 1, muscle isoform

Completed entries (count: 5):
[
  {
    "chemical_string": "CN1CCN(c2cc3c(cc2Cl)CN(C(=O)[C@H]2CCCCN2C(=O)COc2ccccc2)C3)CC1",
    "IC50": "> 100 µM"
  },
  {
    "chemical_string": "COc1ccc(Cl)cc1S(=O)(=O)c1nn(C)c2ccc(C(=O)Nc3ccccc3)cc12",
    "IC50": "> 100 µM"
  },
  {
    "chemical_string": "O=C([C@H]1CCCCN1C(=O)COc1ccccc1)N1CCc2c(Cl)cccc2C1",
    "IC50": "> 100 µM"
  },
  {
    "chemical_string": "O=C(COc1ccccc1)N1CCCC[C@@H]1c1noc(-c2ccc3ncsc3c2)n1",
    "IC50": "> 100 µM"
  },
  {
    "chemical_string": "COc1ccc(Cl)cc1S(=O)(=O)N1CCOc2ncc(C(=O)Nc3ccc(C(=O)O)cc3)cc21",
    "IC50": "> 100 µM"
  }
]

Now consider a different compound.
Query string: Given "COc1ccc(Cl)cc1S(=O)(=O)N(C)c1cc(C(=O)Nc2ncc(CC(=O)O)s2)cc2c1OCO2" , respond with its IC50.
Result string: 1.21 µM
